Here, each record is paired with measured melting point data.
Form entry: value (°C) — number only.

Clc1c(Br)c(Br)c2c(c1Br)Oc1c(Br)c(Br)c(Cl)c(Br)c1O2	385
OOC1CCCc2ccccc21 (stereo unspecified)	56
COc1cccc(OC)c1N	77

Now for another entry.
Record O=S(=O)(Oc1ccccc1)c1ccccc1C=Cc1ccccc1S(=O)(=O)Oc1ccccc1 , field melting point: 180

###

# binning rule on melting point: low bin = under 100 °C, mid bin = from 100 °C up to 200 °C, high bin = 200 °C and over

Below, 3 compounds whose answers are already recorded.
NNC(=O)COc1ccc([N+](=O)[O-])cc1	mid bin
COc1cc(C=CC=O)ccc1O	low bin
Cc1cccc(C)c1NC(=O)C1C2C=CC(C2)C1C(=O)O (stereo not given)	mid bin

Query block: Assign a category based on measured melting point for N#CC1C(=N)Oc2c(c(=O)oc3ccccc23)C1c1ccc(Br)cc1 (stereo not given) and give only the class name.
Result block: high bin

Query block: Assign a category based on measured melting point for C=CCOC(=O)CCC and give only the class name.
Result block: low bin

Query block: Assign a category based on measured melting point for CCOC(=O)C(CC)c1ccc(C)cc1 (stereo not given) and give only the class name.
Result block: mid bin

Query block: Assign a category based on measured melting point for Cc1cccc([N+](=O)[O-])c1C and give only the class name.
Result block: low bin

Query block: Assign a category based on measured melting point for OCCN1CCN(CCO)CC1 and give only the class name.
Result block: mid bin
